Target: Tyrosinase (Mus musculus)
Sequence (P11344 whole entry): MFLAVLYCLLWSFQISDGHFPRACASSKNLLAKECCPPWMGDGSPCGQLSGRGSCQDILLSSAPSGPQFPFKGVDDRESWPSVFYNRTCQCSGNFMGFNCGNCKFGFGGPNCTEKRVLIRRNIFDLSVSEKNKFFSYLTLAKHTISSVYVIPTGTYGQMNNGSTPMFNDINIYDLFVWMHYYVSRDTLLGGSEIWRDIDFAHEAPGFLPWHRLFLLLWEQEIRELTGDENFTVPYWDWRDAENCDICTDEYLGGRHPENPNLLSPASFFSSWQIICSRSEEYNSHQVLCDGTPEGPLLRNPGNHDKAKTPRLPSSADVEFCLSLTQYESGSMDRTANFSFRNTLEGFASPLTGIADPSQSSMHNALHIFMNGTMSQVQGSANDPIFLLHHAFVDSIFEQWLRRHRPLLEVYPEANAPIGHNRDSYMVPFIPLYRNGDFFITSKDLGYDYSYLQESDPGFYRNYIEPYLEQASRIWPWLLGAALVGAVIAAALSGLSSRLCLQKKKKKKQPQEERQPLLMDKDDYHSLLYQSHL
Experiment: Inhibition of tyrosinase in mouse B16-F1 cells
pIC50: −log10 of the molar value.
Quick list: pIC50 per entry.
OBSERVED_PROPERTY: pIC50

> print(dat)
                                    compound          system.under.test  observed.property  censoring.qualifier  recorded.number
 1  COc1cc(/C=C/C(=O)NCCCCNC(=O)/C=C/c2ccc(O)c(OC)c2)ccc1O [TERRESTRIBISAMIDE]  Tyrosinase (Mus musculus)              pIC50                    =             4.05
 2  O=C(/C=C/c1cccc(O)c1)NCCCCNC(=O)/C=C/c1cccc(O)c1  Tyrosinase (Mus musculus)              pIC50                    <             3.82
 3  O=C(/C=C/c1cccc(O)c1)NCCNC(=O)/C=C/c1cccc(O)c1  Tyrosinase (Mus musculus)              pIC50                    <             3.82
 4  O=C(/C=C/c1ccc(O)cc1)NCCCCNC(=O)/C=C/c1ccc(O)cc1  Tyrosinase (Mus musculus)              pIC50                    <             3.82
 5  O=C(/C=C/c1ccc(O)cc1)NCCCNC(=O)/C=C/c1ccc(O)cc1  Tyrosinase (Mus musculus)              pIC50                    =             5.34
 6  COc1ccc(/C=C/C(=O)NCCCCNC(=O)/C=C/c2ccc(OC)c(O)c2)cc1O  Tyrosinase (Mus musculus)              pIC50                    <             3.82
 7  O=C(/C=C/c1cccc(O)c1)NCCCNC(=O)/C=C/c1cccc(O)c1  Tyrosinase (Mus musculus)              pIC50                    =             4.40
 8  COc1ccc(/C=C/C(=O)NCCCNC(=O)/C=C/c2ccc(OC)c(O)c2)cc1O  Tyrosinase (Mus musculus)              pIC50                    =             4.33
 9  COc1cc(/C=C/C(=O)NCCNC(=O)/C=C/c2ccc(O)c(OC)c2)ccc1O  Tyrosinase (Mus musculus)              pIC50                    <             3.82
10  O=C(/C=C/c1ccc(O)cc1)NCCNC(=O)/C=C/c1ccc(O)cc1  Tyrosinase (Mus musculus)              pIC50                    <             3.82
11  COc1ccc(/C=C/C(=O)NCCNC(=O)/C=C/c2ccc(OC)c(O)c2)cc1O  Tyrosinase (Mus musculus)              pIC50                    <             3.82
12  COc1cc(/C=C/C(=O)NCCCNC(=O)/C=C/c2ccc(O)c(OC)c2)ccc1O  Tyrosinase (Mus musculus)              pIC50                    =             4.19
